target: C-Raf TR (Δ1-324 deletion mutant with activating mutations) (Homo sapiens (Human), UniProt P04049, Y340E/Y341E); type: biochemical; conditions: truncated C-Raf (Δ1-324), ATP 3 uM, 10 nM biotinylated MEK1 kinase dead
Sequence (P04049 325-648 Y340E/Y341E): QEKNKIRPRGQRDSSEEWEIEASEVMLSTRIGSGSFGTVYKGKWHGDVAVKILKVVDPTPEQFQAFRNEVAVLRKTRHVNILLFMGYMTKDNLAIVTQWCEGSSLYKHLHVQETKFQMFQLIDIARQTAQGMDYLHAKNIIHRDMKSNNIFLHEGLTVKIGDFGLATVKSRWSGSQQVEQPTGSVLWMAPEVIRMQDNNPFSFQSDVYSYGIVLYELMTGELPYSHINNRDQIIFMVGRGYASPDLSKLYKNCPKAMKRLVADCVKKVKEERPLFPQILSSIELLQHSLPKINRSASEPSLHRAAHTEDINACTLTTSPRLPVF
Field 'label' (enum: yes (1) / no (0)). Set to yes (1) when IC50 is strictly under 500 pM; else no (0).

// below: answered compounds
molecular.string	classification
Cc1ccc(NC(=O)c2cccc(C(F)(F)F)c2)cc1-c1cn(C)c(=O)c(N2CCOCC2)n1	yes (1)
Cc1ccc(NC(=O)c2cccc(C(F)(F)F)c2)cc1-c1cncc(N2CCOCC2)n1	yes (1)
Cc1ccc(NC(=O)c2cccc(C(F)(F)F)c2)cc1-c1csc(N2CCOCC2)n1	no (0)

Shifting focus to the compound that follows.
Is IC50 strictly under 500 pM for the entry `Cc1ccc(C(=O)Nc2cccc(C(F)(F)F)c2)cc1-c1nc(N2CCOCC2)cc(N2CCOCC2)n1` ? no (0)
